Test system: Klebsiella aerogenes DSM 30053
Experiment: fold change of Histamine concentration vs plate DMSO controls (fold change (ratio)); higher = more amine produced, active = hit call of the paper (significant change in both replicates, either direction)
Conditions: incubation time: 27 h, anaerobic, 37 °C
Where a name gives a salt, the structure may show the parent alone.
Could you label it criterion met if measured fold change of Histamine concentration is 1 or higher, and criterion not met otherwise?

CC(=O)NS(=O)(=O)c1ccc(NC(=O)c2ccccc2C(=O)O)cc1 [Phthalylsulfacetamide] (20 µM)
criterion met
CO[C@@]1(NC(=O)C(C(=O)O)c2ccc(O)cc2)C(=O)N2C(C(=O)O)=C(CSc3nnnn3C)CO[C@@H]21 (some centres not stated) [Moxalactam disodium salt] (20 µM)
criterion not met
O=C1c2ccccc2S(=O)(=O)N1CCCCN1CCN(c2ncccn2)CC1 [Ipsapirone] (20 µM)
criterion not met
CC[N+](C)(CC)CCOC(=O)C1c2ccccc2Oc2ccccc21 [Methantheline bromide] (20 µM)
criterion met
CCCCC1C(=O)N(c2ccccc2)N(c2ccccc2)C1=O [Phenylbutazone] (20 µM)
criterion met
CCN1CCN(C(=O)N[C@@H](C(=O)N[C@@H]2C(=O)N3C(C(=O)O)=C(CSc4nnnn4C)CS[C@H]23)c2ccc(O)cc2)C(=O)C1=O [Cefoperazone dihydrate] (20 µM)
criterion not met
OC(CCN1CCCCC1)(c1ccccc1)C1CC2C=CC1C2 (configuration not stated) [Biperiden hydrochloride] (20 µM)
criterion not met
CN(C)CC/C=C1/c2ccccc2Sc2ccc(Cl)cc21 [Chlorprothixene hydrochloride] (20 µM)
criterion not met
Cc1noc(NS(=O)(=O)c2ccc(N)cc2)c1C [Sulfisoxazole] (20 µM)
criterion met
Cn1cc(C(=O)Nc2ccc(F)cc2-c2ccc(Cl)c(Cl)c2)c(C(F)F)n1 (20 µM)
criterion met
CC[C@@H](CO)NCCN[C@@H](CC)CO [Ethambutol dihydrochloride] (20 µM)
criterion not met
O=C1Cc2cc(CCN3CCN(c4nsc5ccccc45)CC3)c(Cl)cc2N1 [Ziprasidone hydrochloride monohydrate] (20 µM)
criterion met
C#C[C@]1(OC(C)=O)CC[C@H]2[C@@H]3CCC4=C[C@@H](OC(C)=O)CC[C@@H]4[C@H]3CC[C@@]21C [Ethynodiol diacetate] (20 µM)
criterion not met
CC(=O)N(CC(C)C(=O)O)c1c(I)cc(I)c(N)c1I (configuration not stated) [Iocetamic acid] (20 µM)
criterion met
O=c1[nH]cnc2c1ncn2[C@H]1CC[C@@H](CO)O1 [Didanosine] (20 µM)
criterion not met
Cc1ccsc1/C=C/C1=NCCCN1C [Morantel tartrate] (20 µM)
criterion not met
CCCNC(C)C(=O)Nc1ccccc1C (configuration not stated) [Prilocaine hydrochloride] (20 µM)
criterion met
CNCCCN1c2ccccc2CCc2ccccc21 [Desipramine hydrochloride] (20 µM)
criterion met
COC(=O)[C@H](Cc1ccccc1)NC(=O)[C@@H](N)CC(=O)O [Aspartame] (50 µM)
criterion met
CN(C)C(=N)NC(=N)N [Metformin hydrochloride] (20 µM)
criterion not met
CCS(=O)(=O)CCn1c([N+](=O)[O-])cnc1C [Tinidazole] (20 µM)
criterion not met
CN(C)C(=O)C(CCN1CCC(O)(c2ccc(Cl)cc2)CC1)(c1ccccc1)c1ccccc1 [Loperamide hydrochloride] (20 µM)
criterion not met

Attribution: the supplement of paper PMC12494721
